# Tested on: CtBP / adenovirus E1A interaction (AlphaScreen)
# PROCEDURE_TEXT: qHTS Assay for Inhibitors of the CtBP/E1A Interaction; further: on the % scale 0 is the no-effect control and ±100 the full control effect
# APPLIED_CONDITIONS: AlphaScreen GST-E1A/His-CtBP binding, 1536-well; stronger effect = lower value
Among all 340,000 compounds or so, about 1,700 (0.5%) were called active. Not shown: some 2% with an inconclusive outcome. The sample holds actives, similar compounds and a random draw of the others, so the mix is not that of the screen.
ASSAY_METRIC: activity change (%)
State the answer as a number, implicitly in %.

Guide cases for activity change, answers given:
O=c1[nH]c(=S)n(C2CC2)c(O)c1/C=N/N1CCOCC1 | -2.5
CC(C)c1ccc(-n2c(O)c(/C=N/N3CCOCC3)c(=O)[nH]c2=S)cc1 | -2.7
COc1ccccc1-n1c(O)c(C=NC2CC2)c(=O)[nH]c1=O | 7.53
O=C(N/N=C/c1c(O)n(Cc2ccccc2)c(=O)[nH]c1=O)c1ccccc1 | -72.7
O=C(N/N=C/c1c(O)n(C2CC2)c(=S)[nH]c1=O)c1ccccc1Cl | -92.7
COC(=O)C1=C(c2ccc(OCc3ccccc3)cc2)C[C@@H]2CC[C@H]1N2C(=O)NCc1ccc(Cl)cc1 | 0.0513
CC(=CCOc1ccc2ccc(=O)oc2c1)C1=CC(=O)C(C)(C)O1 | 1.99
CCOC(=O)[C@]12Cc3ccccc3[C@H]1N(C1CCCCC1)C(=O)c1cc(OC)ccc12 | -16.5
COC(=O)C[C@H]1CC[C@H]2NC[C@@H](O)COC[C@@H]2O1 | -7.3

We next turn to a different molecule, shown below.
Task: # get_value(readout= activity change, system= CtBP / adenovirus E1A interaction (AlphaScreen)) for CCOC(=O)[C@]12Cc3cc(OC)ccc3[C@H]1N(C(C)C)C(=O)c1ccccc12
Output: -1.62
